Where these numbers come from: ChEMBL document CHEMBL1143844

Experiment: Inhibition of HIV1 reverse transcriptase 41L/69S-SG/210W/215Y mutant in presence of 5'-A12-(GACT)5-3' by heteropolymeric DNA polymerase assay
pIC50: −log10 of the molar value.
Let's look at some compounds and their measured pIC50.
ATTRIBUTE_MEASURED: pIC50

INSERT INTO measurements (record_smiles, test_result) VALUES
  ('Cc1cn([C@H]2CO[C@@H](COP(=O)(O)OP(=O)(O)OP(=O)(O)O)O2)c(=O)[nH]c1=O', 6.11),
  ('C[C@H](Cn1cnc2c(N)ncnc21)OCP(=O)(O)OP(=O)(O)OP(=O)(O)O', 4.77);
